- assay: Induction of differentiation in human HL60-G cells assessed as CD14 expression
- Assay type: functional
I'd appreciate it if you could supply ED20 values for the items below.

Request: Fill in: ED20 of C=C1/C(=C\C=C2/CCC[C@@]3(C)C2CC[C@@H]3[C@H](C)CCCC(C)(C)O)C[C@@H](O)C[C@H]1O (stereo partly specified) is ___
Response: 0.57 nM

Request: Fill in: ED20 of C=C1/C(=C\C=C2/CCC[C@@]3(C)C2CC[C@@H]3[C@]2(CCCC(C)(C)O)C[C@H]2CCC(C)(C)O)C[C@@H](O)C[C@H]1F (stereo partly specified) is ___
Response: >500 nM

Request: Fill in: ED20 of C=C1/C(=C\C=C2/CCC[C@@]3(C)C2CC[C@@H]3[C@]2(CC#CC(O)(C(F)(F)F)C(F)(F)F)C[C@H]2CCC(C)(C)O)C[C@@H](O)C[C@@H]1O (stereo partly specified) is ___
Response: 0.24 nM

Request: Fill in: ED20 of C=C1/C(=C\C=C2/CCC[C@@]3(C)C2CC[C@@H]3[C@]2(CCCC(C)(C)O)C[C@H]2CCC(C)(C)O)C[C@@H](O)C[C@@H]1O (stereo partly specified) is ___
Response: 9.97 nM

Request: Fill in: ED20 of CC(C)(O)CCC[C@@]1([C@H]2CCC3/C(=C/C=C4C[C@@H](O)C[C@H](O)C4)CCC[C@@]32C)C[C@H]1CCC(C)(C)O (stereo partly specified) is ___
Response: 66.03 nM

Request: Fill in: ED20 of CC(C)(O)CC[C@@H]1C[C@@]1(CC#CC(O)(C(F)(F)F)C(F)(F)F)[C@H]1CCC2/C(=C/C=C3C[C@@H](O)C[C@H](O)C3)CCC[C@@]21C (stereo partly specified) is ___
Response: 0.46 nM

Hey, just so you know, these numbers are from ChEMBL document CHEMBL1148694.
